# tested system: insulin receptor (Rattus norvegicus)
# Construct: from tissue; host or cells: rat liver; endosome (EN) and plasma membrane (PM) fractions
# Sequence (P15127 27-759 limits assumed): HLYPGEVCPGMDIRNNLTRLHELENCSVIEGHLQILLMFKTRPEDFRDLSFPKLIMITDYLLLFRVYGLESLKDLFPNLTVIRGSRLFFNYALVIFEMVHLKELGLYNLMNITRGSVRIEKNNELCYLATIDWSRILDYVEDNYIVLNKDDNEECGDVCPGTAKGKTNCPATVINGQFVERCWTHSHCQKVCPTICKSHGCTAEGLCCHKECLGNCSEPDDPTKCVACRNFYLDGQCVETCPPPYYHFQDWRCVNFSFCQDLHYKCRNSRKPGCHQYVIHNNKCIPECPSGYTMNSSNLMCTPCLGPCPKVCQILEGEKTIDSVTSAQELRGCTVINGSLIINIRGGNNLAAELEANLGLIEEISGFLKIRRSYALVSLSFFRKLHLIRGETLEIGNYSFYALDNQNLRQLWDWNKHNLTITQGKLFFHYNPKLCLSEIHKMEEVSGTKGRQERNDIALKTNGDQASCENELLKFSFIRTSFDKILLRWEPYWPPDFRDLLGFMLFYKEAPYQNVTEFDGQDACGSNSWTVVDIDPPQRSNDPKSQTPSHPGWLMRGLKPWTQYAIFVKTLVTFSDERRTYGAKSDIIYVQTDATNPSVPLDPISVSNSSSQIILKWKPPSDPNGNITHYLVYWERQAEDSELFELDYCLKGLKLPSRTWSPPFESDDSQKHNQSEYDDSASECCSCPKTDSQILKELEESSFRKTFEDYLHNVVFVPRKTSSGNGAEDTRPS
# Sequence (P15127 764-1383 limits assumed): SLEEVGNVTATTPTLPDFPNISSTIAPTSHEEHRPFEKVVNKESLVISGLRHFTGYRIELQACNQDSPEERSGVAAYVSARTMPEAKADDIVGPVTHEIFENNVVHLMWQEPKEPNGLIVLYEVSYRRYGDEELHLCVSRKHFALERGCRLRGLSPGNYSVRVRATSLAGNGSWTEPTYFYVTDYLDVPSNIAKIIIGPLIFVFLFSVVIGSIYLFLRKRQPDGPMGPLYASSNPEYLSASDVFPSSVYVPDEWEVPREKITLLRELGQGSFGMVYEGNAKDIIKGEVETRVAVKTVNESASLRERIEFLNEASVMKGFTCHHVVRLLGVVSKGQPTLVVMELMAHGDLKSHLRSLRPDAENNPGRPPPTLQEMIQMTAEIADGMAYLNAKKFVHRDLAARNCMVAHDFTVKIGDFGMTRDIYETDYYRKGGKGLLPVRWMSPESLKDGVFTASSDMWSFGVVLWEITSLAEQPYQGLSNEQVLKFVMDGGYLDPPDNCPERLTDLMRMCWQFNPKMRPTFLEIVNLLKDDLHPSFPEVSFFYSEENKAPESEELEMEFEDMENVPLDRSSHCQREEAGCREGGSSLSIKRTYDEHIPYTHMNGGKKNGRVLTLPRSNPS
# assay summary: 125I-insulin binding after preincubating endosomes (ENs containing IR) with nucleotides
# recorded conditions: Table 2; addition 10 mM, 37° C. 15 min; normalized to endosomes without nucleotide
recorded endpoint: 125I-Insulin specific binding (%), WGA-purified endosomes

{"compound": "Nc1ncnc2c1ncn2[C@@H]1O[C@H](CO)[C@@H](O)[C@H]1O", "unit descriptor": "%", "endpoint result": 105.9}
{"compound": "Nc1ncnc2c1ncn2[C@@H]1O[C@H](COP(=O)(O)OP(=O)(O)NP(=O)(O)O)[C@@H](O)[C@H]1O", "unit descriptor": "%", "endpoint result": 99.1}
{"compound": "Nc1ncnc2c1ncn2[C@@H]1O[C@H](COP(=O)(O)OP(=O)(O)OP(=O)(O)O)[C@@H](O)[C@H]1O [ATP, adenosine 5′triphosphate]", "unit descriptor": "%", "endpoint result": 25.2}
{"compound": "O=P([O-])([O-])OP(=O)([O-])[O-].[Na+].[Na+].[Na+].[Na+] [NaPiPi, sodium pyrophosphate]", "unit descriptor": "%", "endpoint result": 97.8}
{"compound": "Nc1ncnc2c1ncn2[C@@H]1O[C@H](COP(=O)(O)OP(=O)(O)CP(=O)(O)O)[C@@H](O)[C@H]1O", "unit descriptor": "%", "endpoint result": 95.1}
{"compound": "Nc1ncnc2c1ncn2[C@@H]1O[C@H](COP(=O)(O)OP(=O)(O)O)[C@@H](O)[C@H]1O", "unit descriptor": "%", "endpoint result": 82.7}
